Protein target, amino acids: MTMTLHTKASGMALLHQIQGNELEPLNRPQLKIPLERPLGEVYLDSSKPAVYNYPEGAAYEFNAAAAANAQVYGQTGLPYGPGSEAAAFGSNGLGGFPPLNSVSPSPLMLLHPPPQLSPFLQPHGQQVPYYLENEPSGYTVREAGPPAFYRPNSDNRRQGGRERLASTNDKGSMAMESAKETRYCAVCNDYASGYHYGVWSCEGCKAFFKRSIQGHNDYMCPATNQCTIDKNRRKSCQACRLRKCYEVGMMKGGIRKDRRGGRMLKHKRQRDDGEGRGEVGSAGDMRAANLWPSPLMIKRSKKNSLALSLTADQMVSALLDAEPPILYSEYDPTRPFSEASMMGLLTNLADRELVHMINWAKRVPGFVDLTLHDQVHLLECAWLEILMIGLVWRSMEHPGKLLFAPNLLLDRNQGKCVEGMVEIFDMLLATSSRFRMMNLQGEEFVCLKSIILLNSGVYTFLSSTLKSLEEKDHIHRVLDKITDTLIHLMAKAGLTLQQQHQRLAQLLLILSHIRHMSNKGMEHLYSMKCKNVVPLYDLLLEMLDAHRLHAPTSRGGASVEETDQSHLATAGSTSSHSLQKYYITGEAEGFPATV
pKi: −log10 of the molar value.
VALUE_TYPE: pKi

[[record]]
compound = "COC(=O)C(=CC1(C)CC2C=CC1CC2C(C)(C)CCNC(=O)CCC(C)C)C(=O)OC (stereo unspecified)"
number = 5.10


Reference source for all entries: ChEMBL document CHEMBL1149553
